The measurements presented in this section are drawn from PubChem BioAssay (NCI).

Test: NCI Yeast Anticancer Drug Screen. Data for the sgs1 mgt1 strain (AID 161);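 also: 0% = growth of cultures given vehicle only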
Conditions: S. cerevisiae sgs1 mgt1 strain, at 50.0 µM, active compounds read high
The panel holds about 79,000 compounds, 15% with a hit somewhere; the sample as a whole holds those more often. *1 amine or outer side, *2 acyl side, *3 side chain or, on linkers, in order; H or OH if unused. Where a SMILES comes first, the peptide text is derived from it. [ ]: non-standard residue; d: D form. X8 = C=CCC(O[*:1])C(=O)[*:2]; NMeV = CN[CH](C(=O)O)C(C)C; NMeA = CN[CH](C)C(=O)O; βAla = NCCC(=O)O
Could you please report measured growth inhibition for the items listed next?
One number for each entry, in %.

These recorded examples may help you get a feel for the data.
{"columns": ["COMPOUND", "REPORTED RESULT"],
 "data": [
  ["CCCCCCCCCCCCCCCCCC1(c2ccccc2)NC(=O)NC1=O (centres undefined)", 30.5],
  ["OCC(O)C(O)C(O)c1nn(-c2ccccc2)c2nc3ccc(Cl)cc3nc12 (centres undefined)", 6.05],
  ["C=CCC1OC(=O)CCNC(=O)C(C)N(C)C(=O)C(C(C)C)N(C)C(=O)C(C(C)CC)NC(=O)C2CCCN2C1=O (centres undefined) (cyclo([X8]PI[NMeV][NMeA][βAla]); configuration not given here)", 5.55]
]}

Request: Query: growth inhibition; subject: CC(=C/c1ccccc1)/C=C1/NC(=S)N(CN2CCCCCC2)C1=O
Result: 19.9

* * *

Assay: NCI Yeast Anticancer Drug Screen. Data for the mlh1 rad18 strain (AID 175)
Details: S. cerevisiae mlh1 rad18 strain growth inhibition; at 50.0 µM; active compounds read high
This is part of a sample that, as a whole, favours compounds with a hit. Of some 79,000 tested, about 15% had one in any assay.
Record form. Attribute: growth inhibition. Fill in for each entry.
One number for each entry, in %.

Recorded results for 5 compounds are shown here.
{"columns": ["COMPOUND", "OBSERVATION TYPE", "READING UNIT", "REPORTED RESULT"],
 "data": [
  ["CN(C)c1ccc(-c2cc(C(=O)O)c3cc(I)ccc3n2)c(Cl)c1", "growth inhibition", "%", 35.8],
  ["COc1n[nH]c(N)n1", "growth inhibition", "%", 20.2],
  ["Cc1cc2c(cc1Cl)SSc1cc(Cl)c(C)cc1S(=O)(=O)Nc1nc(N)nn1C(O)n1nc(N)nc1NS2(=O)=O", "growth inhibition", "%", 0.45],
  ["CCCC[P+](CCCC)(CCCC)c1ccccc1", "growth inhibition", "%", -1.4],
  ["CC(=O)NNC(=O)NCCCCCCNC(=O)NNC(C)=O", "growth inhibition", "%", 26.5]
]}

Turning now to a further compound:
Request: Fill in: growth inhibition of CCCCCC(N)C(=O)O (stereo unspecified) is ___
Result: -17.9

* * *

Experiment: NCI Yeast Anticancer Drug Screen. Data for the rad50 strain (AID 155);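 also: 0% = growth of vehicle-only cultures of the same strain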
Conditions: S. cerevisiae rad50 strain growth inhibition; at 50.0 µM; active compounds read high
The panel holds about 79,000 compounds, 15% with a hit somewhere; the sample as a whole holds those more often.
Could you please report measured growth inhibition for the items listed next?
Numbers only, in %.

Would you please look over these solved cases?
{"columns": ["COMPOUND", "REPORTED RESULT"],
 "data": [
  ["O=C(O)c1ccc(-n2cnc3c(=O)[nH]cnc32)cc1", -8.6],
  ["CNC(=O)NS(=O)(=O)c1cccc([N+](=O)[O-])c1", -0.3],
  ["O=C(N=C1SCCN1C(=O)C(C(F)(F)F)C(F)(F)F)C(C(F)(F)F)C(F)(F)F", -20.6],
  ["O=C(Nc1ccc(Br)cc1)C(=O)C(C(=O)c1ccccc1F)C1OC(=O)c2ccccc21 (stereo unspecified)", -17.6],
  ["Cc1ccc2c(c1)SC(c1cc3c(cc1Br)OCO3)S2 (stereo unspecified)", -10.7]
]}

Query compound follows.
Request: Dear colleague, I am looking for the recorded growth inhibition of the following compound: C/C=C/C(=O)N(CC)c1ccccc1
Result: 37.2

* * *

Assign growth inhibition to each entry below.
Assay: NCI Yeast Anticancer Drug Screen. Data for the mlh1 rad18 strain (AID 175)
Details: S. cerevisiae mlh1 rad18 strain growth inhibition; at 50.0 µM; active compounds read high
The panel holds about 79,000 compounds, 15% with a hit somewhere; the sample as a whole holds those more often.
Give bare numbers, in %.

{"columns": ["MOLECULE", "growth inhibition, %"],
 "data": [
  ["O=C1CCc2nc(=O)c3c4ccccc4ccc3n21", -0.2],
  ["COC(=O)c1cc(-c2ccc(N)cc2)c2c(=O)n(-c3ccccc3)[nH]c2n1", 6.45],
  ["CC1OCOC(CO)C(O)C1O (centres undefined)", -5.8],
  ["COC(=O)C1(Cc2ccccc2)Cc2ccccc2C1", 12.2],
  ["COC(=O)C1(CC(=O)c2cccs2)NC(=S)NC(=O)C1C#N (centres undefined)", 2.55],
  ["Cc1ccc(S(=O)(=O)/N=[N+](\\[O-])c2ccc(N(C)C)cc2)cc1", -3.35],
  ["CC(=O)NC1c2ccccc2C(C)(C)C12CCC1(CC2)OCCO1 (centres undefined)", -40.8],
  ["CC1(C)OC2C(=O)O[C@H](CO)C2O1 (some centres undefined)", 16.4]
]}

Please give growth inhibition, item by item, for the list that follows.
1. CC(=O)OCCC(OC(C)=O)c1ccccn1 (centres undefined)
2. CCCCCCCCCCCCCCCCCC(=O)N/N=C/c1ccccc1
3. COC1OC2COC(C)(c3ccccc3)OC2C(O)C1[NH-].COC1OC2COC(C)(c3ccccc3)OC2C(O)C1[NH-].[Cl][Pt+2][Cl] (centres undefined)
4. COC(=O)/C(C#N)=C(\C)CC(C)C
5. CC(=O)Nc1ccc(C(=O)C=O)cc1
6. CC(=O)OCC1OC(n2c(O)c(/C=C3\C=Nc4ccccc43)sc2=S)C(OC(C)=O)C(OC(C)=O)C1OC(C)=O (centres undefined)

Result:
1: -18.6; 2: -5.55; 3: 35.4; 4: -9; 5: -40.8; 6: 4.9

Working through the 6 molecules below one at a time, give growth inhibition for each.
1. CCOC(=O)c1cnc2nc[nH]n2c1=O
2. CC1=NNC(=O)C1
3. C=C1CC[C@H]2C(=O)OC(c3ccoc3)C[C@]2(C)C/C=C\C=C/1C(=O)OC (some centres undefined)
4. N=c1c(-c2ccccc2)cc2ccccc2n1O
5. Cc1cc2c(c(S(=O)(=O)c3ccc(Cl)cc3[N+](=O)[O-])c1)NCCC2
6. COC(=O)C(=O)Cc1nc2ccccc2s1

Result:
1. -36.5
2. 2.9
3. -22.6
4. -5.25
5. -0.7
6. 7.3

* * *

Test: NCI Yeast Anticancer Drug Screen. Data for the cln2 rad14 strain (AID 165);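 also: 0% = growth equal to vehicle treated cultures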
Conditions: S. cerevisiae cln2 rad14 strain, at 50.0 µM, active compounds read high
Compounds without any hit were thinned out: in the full panel of roughly 79,000, 15% have a hit.
Assignment: determine reported growth inhibition for the given compounds.
Answers are plain numbers, in %.

{"columns": ["COMPOUND", "growth inhibition, %"],
 "data": [
  ["COc1cc(OC)c(/C=C2\\N=C(C)N(Nc3nnc(NN4C(=O)/C(=C/c5c(OC)cc(OC)cc5OC)N=C4C)c4ccccc34)C2=O)c(OC)c1", -2.5],
  ["COc1ccc(C2N(c3ccccc3)OC(=O)N2c2ccccc2)cc1 (stereo not given)", 9.1],
  ["c1cc(CCc2ccncc2)ccn1", 3.6],
  ["COc1ccc2[nH]c3c4c(cc(-c5ccccc5)c3c2c1)C(=O)N(c1ccccc1)C4=O", 11.2],
  ["Cc1ccccc1Nc1nc2ccccc2nc1NS(=O)(=O)c1ccccc1", -0.8],
  ["c1ccc(/C2=C(\\c3ccccc3)CSSSSC2)cc1", 43.2],
  ["CN(C)c1nc2oc(-c3ccccc3)c(-c3ccccc3)c2c2nncn12", 16.9],
  ["COC(=O)O[C@H]1CC[C@@]2(C)C(=CC[C@H]3[C@@H]4CC[C@H]([C@H](C)CCCC(C)C)[C@@]4(C)CC[C@@H]32)C1", 6.75],
  ["[N-]=[N+]=NC12CC3C4CC5CC3C(C1)C(C5)C4C2", 10.2]
]}

Now look at this one.
Request: Field request: growth inhibition | item: Cc1nc2cc(N)c(Cl)cc2[nH]1
Result: -7.15

* * *

Assign growth inhibition to each entry below.
Assay: NCI Yeast Anticancer Drug Screen. Data for the mec2-1 strain (AID 157)
Details: S. cerevisiae mec2-1 strain, at 50.0 µM, active compounds read high
The panel holds about 79,000 compounds, 15% with a hit somewhere; the sample as a whole holds those more often.
One number for each entry, in %.

{"columns": ["COMPOUND", "READING UNIT", "REPORTED RESULT"],
 "data": [
  ["CC(=O)/C(=C/n1c(=S)[nH]c2ccccc21)C(=O)Nc1ccc([N+](=O)[O-])cc1", "%", -2.75],
  ["COC(=O)Nc1nc2ccc(SC)cc2c(=O)[nH]1", "%", -5.55]
]}

Dear colleague, could you please provide growth inhibition for the compounds listed below?
1. CCCCN1C(=O)c2cc(=O)[nH]c(O)c2C1C (stereo unspecified)
2. C=C1CCCCCCCCCCC1S(=O)c1ccccc1 (stereo unspecified)
3. C[C@]12CC[C@@H]3c4ccc(OCCCO)c([N+](=O)[O-])c4CC[C@H]3[C@@H]1CCC2=O
4. COc1ccc(CCN2CN=C(Sc3ccc([N+](=O)[O-])cc3Cl)NC2)cc1OC
5. CONS(=O)c1ccc(Cl)cc1 (stereo unspecified)
6. O=C1NC(Cc2c[nH]c3ccccc23)C(=O)N2CCCC12 (stereo unspecified)
7. CCCCCCCCCCCCN1CCCN(CCCCCCCCCCCC)CC1
8. COc1ccc(/C=C2\N=C(c3cc(OC)c(OC)c(OC)c3)OC2=O)cc1

Result:
6.35
14.3
6.8
-11.2
28.2
1
99.2
13.1

Request: For O=C(O)c1cnc2c(ccc3[nH]cccc32)c1=O , what is its reported growth inhibition?
Result: -33.8
